Source of measurements: the supplement of paper PMC10307832

tested on: HCC-366; assay: relative viability (nuclei count vs DMSO), 5 days (fraction); higher = more cells survive; conditions: first compound 0.253 µM
Form field: relative viability (one value per entry).

Here is how some compounds turned out for relative viability.
C=C1C(=O)O[C@@H](CCCCCCCC)[C@@H]1C(=O)O [C-75] + Nc1ncn([C@H]2C[C@H](O)[C@@H](CO)O2)c(=O)n1 [Decitabine] (partner 2 µM) = 0.361
C=C1C(=O)O[C@@H](CCCCCCCC)[C@@H]1C(=O)O [C-75] + COc1cc2c(Oc3ccc(NC(=O)C4(C(=O)Nc5ccc(F)cc5)CC4)cc3F)ccnc2cc1OCCCN1CCOCC1 [Foretinib] (partner 0.25 µM) = 0.961
C=C1C(=O)O[C@@H](CCCCCCCC)[C@@H]1C(=O)O [C-75] + C[C@]1(O)C[C@@H](c2nc(-c3ccc4ccc(-c5ccccc5)nc4c3)c3c(N)nccn32)C1 [Linsitinib] (partner 1 µM) = 0.645
C=C1C(=O)O[C@@H](CCCCCCCC)[C@@H]1C(=O)O [C-75] + CS(=O)(=O)CCNCc1ccc(-c2ccc3ncnc(Nc4ccc(OCc5cccc(F)c5)c(Cl)c4)c3c2)o1 [Lapatinib] (partner 2 µM) = 1.19
C=C1C(=O)O[C@@H](CCCCCCCC)[C@@H]1C(=O)O [C-75] + COc1cccc2cc(-c3nc([C@H]4CC[C@H](C(=O)O)CC4)n4ncnc(N)c34)[nH]c12 [OSI-027] (partner 0.5 µM) = 1.31

[Q] // fetch relative viability for C=C1C(=O)O[C@@H](CCCCCCCC)[C@@H]1C(=O)O [C-75] + O=C(c1cc(Cc2n[nH]c(=O)c3ccccc23)ccc1F)N1CCN(C(=O)C2CC2)CC1 [Olaparib] (partner 8 µM) ; system: HCC-366
[A] 0.49

---

system: NCI-H1437; experiment: relative viability (nuclei count vs DMSO), 5 days (fraction); higher = more cells survive; settings: first compound 0.3162 µM
Property label: relative viability
Keep the answer to the number alone.

NC(=O)Nc1cc(-c2cccc(F)c2)sc1C(=O)N[C@H]1CCCNC1 [AZD7762] + C[C@]1(O)C[C@@H](c2nc(-c3ccc4ccc(-c5ccccc5)nc4c3)c3c(N)nccn32)C1 [Linsitinib] (partner 1 µM) = 1.04

[Q] // fetch relative viability for NC(=O)Nc1cc(-c2cccc(F)c2)sc1C(=O)N[C@H]1CCCNC1 [AZD7762] + CS(=O)(=O)CCNCc1ccc(-c2ccc3ncnc(Nc4ccc(OCc5cccc(F)c5)c(Cl)c4)c3c2)o1 [Lapatinib] (partner 2 µM) ; system: NCI-H1437
[A] 0.841

---

test system: NCI-H1993; test: relative viability (nuclei count vs DMSO), 5 days (fraction); higher = more cells survive; details: first compound 0.03162 µM
Please respond with rule met when measured relative viability is strictly beneath 0.6, and with rule not met in all other cases.

NC(=O)Nc1cc(-c2cccc(F)c2)sc1C(=O)N[C@H]1CCCNC1 [AZD7762] + CC(C)C[C@H](NC(=O)[C@H](Cc1ccccc1)NC(=O)c1cnccn1)B(O)O [Bortezomib] (partner 0.002 µM) = rule not met

[Q] Does NC(=O)Nc1cc(-c2cccc(F)c2)sc1C(=O)N[C@H]1CCCNC1 [AZD7762] + N=C(N)NC(=N)NCCc1ccccc1 [Phenformin] (partner 250 µM) have relative viability strictly under 0.6?
[A] rule met

[Q] Does NC(=O)Nc1cc(-c2cccc(F)c2)sc1C(=O)N[C@H]1CCCNC1 [AZD7762] + C[C@@H](Oc1cc(-c2cnn(C3CCNCC3)c2)cnc1N)c1c(Cl)ccc(F)c1Cl [Crizotinib] (partner 1 µM) have relative viability strictly under 0.6?
[A] rule not met

[Q] Does NC(=O)Nc1cc(-c2cccc(F)c2)sc1C(=O)N[C@H]1CCCNC1 [AZD7762] + CS(=O)(=O)N1CCN(Cc2cc3nc(-c4cccc5[nH]ncc45)nc(N4CCOCC4)c3s2)CC1 [Pictilisib] (partner 1 µM) have relative viability strictly under 0.6?
[A] rule not met

---

system: SK-MES-1; experiment: relative viability (nuclei count vs DMSO), 5 days (fraction); higher = more cells survive; conditions: first compound 0.4 µM
Property label: relative viability
Keep the answer to the number alone.

O=C(O)c1ccc(-c2c[nH]c3ncc(-c4ccccc4)cc23)cc1C1CCCC1 + CS(=O)(=O)N1CCN(Cc2cc3nc(-c4cccc5[nH]ncc45)nc(N4CCOCC4)c3s2)CC1 [Pictilisib] (partner 1 µM) = 0.283
O=C(O)c1ccc(-c2c[nH]c3ncc(-c4ccccc4)cc23)cc1C1CCCC1 + C[C@]1(O)C[C@@H](c2nc(-c3ccc4ccc(-c5ccccc5)nc4c3)c3c(N)nccn32)C1 [Linsitinib] (partner 1 µM) = 0.997

Attention now shifts to the item below.
[Q] For the molecule O=C(O)c1ccc(-c2c[nH]c3ncc(-c4ccccc4)cc23)cc1C1CCCC1 + CC(=O)c1c(C)c2cnc(Nc3ccc(N4CCNCC4)cn3)nc2n(C2CCCC2)c1=O [Palbociclib] (partner 0.5 µM) , report relative viability.
[A] 0.303

---

test system: NCI-H1755; experiment: relative viability (nuclei count vs DMSO), 5 days (fraction); higher = more cells survive; conditions: first compound 0.1581 µM
Property label: relative viability
Keep the answer to the number alone.

Here is how some compounds turned out for relative viability.
CC1(C)CCC(c2ccc(Cl)cc2)=C(CN2CCN(c3ccc(C(=O)NS(=O)(=O)c4ccc(N[C@H](CCN5CCOCC5)CSc5ccccc5)c(S(=O)(=O)C(F)(F)F)c4)cc3)CC2)C1 [Navitoclax] + O=C(c1cc(Cc2n[nH]c(=O)c3ccccc23)ccc1F)N1CCN(C(=O)C2CC2)CC1 [Olaparib] (partner 8 µM) = 0.818
CC1(C)CCC(c2ccc(Cl)cc2)=C(CN2CCN(c3ccc(C(=O)NS(=O)(=O)c4ccc(N[C@H](CCN5CCOCC5)CSc5ccccc5)c(S(=O)(=O)C(F)(F)F)c4)cc3)CC2)C1 [Navitoclax] + CS(=O)(=O)CCNCc1ccc(-c2ccc3ncnc(Nc4ccc(OCc5cccc(F)c5)c(Cl)c4)c3c2)o1 [Lapatinib] (partner 2 µM) = 0.984
CC1(C)CCC(c2ccc(Cl)cc2)=C(CN2CCN(c3ccc(C(=O)NS(=O)(=O)c4ccc(N[C@H](CCN5CCOCC5)CSc5ccccc5)c(S(=O)(=O)C(F)(F)F)c4)cc3)CC2)C1 [Navitoclax] + Nc1ncn([C@H]2C[C@H](O)[C@@H](CO)O2)c(=O)n1 [Decitabine] (partner 2 µM) = 0.677

Attention now shifts to the item below.
[Q] For the compound CC1(C)CCC(c2ccc(Cl)cc2)=C(CN2CCN(c3ccc(C(=O)NS(=O)(=O)c4ccc(N[C@H](CCN5CCOCC5)CSc5ccccc5)c(S(=O)(=O)C(F)(F)F)c4)cc3)CC2)C1 [Navitoclax] + NC(=O)Nc1cc(-c2cccc(F)c2)sc1C(=O)N[C@H]1CCCNC1 [AZD7762] (partner 0.2 µM) , report relative viability.
[A] 0.439

---

Form field: relative viability (one value per entry).
test system: LU99A; test: relative viability (nuclei count vs DMSO), 5 days (fraction); higher = more cells survive; conditions: first compound 8 µM
Keep the answer to the number alone.

Here is how some compounds turned out for relative viability.
C=C1C(=O)O[C@@H](CCCCCCCC)[C@@H]1C(=O)O [C-75] + Nc1nc2[nH]cc(CCc3ccc(C(=O)N[C@@H](CCC(=O)O)C(=O)O)cc3)c2c(=O)[nH]1 [Pemetrexed] (partner 0.2 µM) = 0.21
C=C1C(=O)O[C@@H](CCCCCCCC)[C@@H]1C(=O)O [C-75] + NC(=O)Nc1cc(-c2cccc(F)c2)sc1C(=O)N[C@H]1CCCNC1 [AZD7762] (partner 0.2 µM) = 0.401
C=C1C(=O)O[C@@H](CCCCCCCC)[C@@H]1C(=O)O [C-75] + N=C(N)NC(=N)NCCc1ccccc1 [Phenformin] (partner 250 µM) = 0.641

[Q] For the compound C=C1C(=O)O[C@@H](CCCCCCCC)[C@@H]1C(=O)O [C-75] + CS(=O)(=O)N1CCN(Cc2cc3nc(-c4cccc5[nH]ncc45)nc(N4CCOCC4)c3s2)CC1 [Pictilisib] (partner 1 µM) , report relative viability.
[A] 0.307

[Q] For the compound C=C1C(=O)O[C@@H](CCCCCCCC)[C@@H]1C(=O)O [C-75] + O=C(c1cc(Cc2n[nH]c(=O)c3ccccc23)ccc1F)N1CCN(C(=O)C2CC2)CC1 [Olaparib] (partner 8 µM) , report relative viability.
[A] 0.205

[Q] For the compound C=C1C(=O)O[C@@H](CCCCCCCC)[C@@H]1C(=O)O [C-75] + CC(=O)c1c(C)c2cnc(Nc3ccc(N4CCNCC4)cn3)nc2n(C2CCCC2)c1=O [Palbociclib] (partner 0.5 µM) , report relative viability.
[A] 0.398

[Q] For the compound C=C1C(=O)O[C@@H](CCCCCCCC)[C@@H]1C(=O)O [C-75] + COc1cccc2cc(-c3nc([C@H]4CC[C@H](C(=O)O)CC4)n4ncnc(N)c34)[nH]c12 [OSI-027] (partner 0.5 µM) , report relative viability.
[A] 0.325
